Recorded Emax by entry
Biological target: SIRT1 (Homo sapiens, UniProt Q96EB6)
Sequence (Q96EB6 1-747): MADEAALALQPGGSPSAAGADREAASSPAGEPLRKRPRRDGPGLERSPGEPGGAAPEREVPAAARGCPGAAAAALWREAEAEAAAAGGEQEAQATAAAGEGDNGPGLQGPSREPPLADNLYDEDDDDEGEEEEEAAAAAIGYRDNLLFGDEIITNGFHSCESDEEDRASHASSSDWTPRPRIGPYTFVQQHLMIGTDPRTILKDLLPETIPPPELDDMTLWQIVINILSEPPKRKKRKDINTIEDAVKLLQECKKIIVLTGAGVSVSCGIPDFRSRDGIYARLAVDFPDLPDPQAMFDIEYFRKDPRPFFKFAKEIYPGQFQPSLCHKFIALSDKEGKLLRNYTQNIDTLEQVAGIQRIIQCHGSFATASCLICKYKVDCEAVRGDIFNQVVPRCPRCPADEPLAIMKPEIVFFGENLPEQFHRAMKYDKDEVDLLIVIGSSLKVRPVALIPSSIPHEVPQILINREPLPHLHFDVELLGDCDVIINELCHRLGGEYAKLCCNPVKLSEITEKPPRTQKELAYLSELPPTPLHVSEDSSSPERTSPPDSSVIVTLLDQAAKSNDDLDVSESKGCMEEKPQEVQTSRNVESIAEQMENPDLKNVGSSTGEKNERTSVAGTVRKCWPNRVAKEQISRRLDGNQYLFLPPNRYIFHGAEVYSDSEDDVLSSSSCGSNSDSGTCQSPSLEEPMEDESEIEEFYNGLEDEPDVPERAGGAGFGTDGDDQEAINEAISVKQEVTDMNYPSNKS
Test: Trp mass spectrometry assay of SIRT1 activity
Assay type: biochemical
Settings: Trp assay; percent maximum fold activation; read-out: Trp % Fold Act

# count of solved cases: 3
[[record]]
chemical_string = "O=C(Nc1cnc2ccc(-c3ccccc3C(F)(F)F)nn12)c1cccc(OC[C@H](O)CO)n1"
result = "≥ 350%"

[[record]]
chemical_string = "Cc1nn2ccc(-c3ccccc3C(F)(F)F)nc2c1C(=O)Nc1ncc(F)cc1F"
result = "≥ 350%"

[[record]]
chemical_string = "Cc1cnc(NC(=O)c2c(C)nn3ccc(-c4ccccc4C(F)(F)F)nc23)cn1"
result = "≥ 350%"


// below: Emax requested for another molecule
Item Cc1cnc(C(=O)Nc2c(C)nc3ccc(-c4ccccc4C(F)(F)F)nn23)s1 has what recorded Emax?
< 350%
